assay: Plasma and heart concentrations after 5-min i.v. administration in anesthetized male Hartley guinea pigs; format: in vivo; conditions: plasma, iv, guinea pig, 10 mg/kg 5-min i.v., sampling time 30 min, read-out: Total plasma concentration
OBSERVATION_TYPE: concentration at 30 min (µM)

[[record]]
molecule = "CC(C)(O)c1cccc(-c2ccc3nc(-c4ccc(Cl)cc4)cn3c2)c1 [Cpd 38]"
readout_unit = "µM"
quantitative_readout = 7.1


----------
assay: Plasma and heart concentrations after 5-min i.v. administration in anesthetized mongrel dogs; assay type: in vivo; conditions: plasma, iv, dog, 10 mg/kg 5-min i.v., sampling time 60 min, mean ± SD, n = 3, read-out: Total plasma concentration
OBSERVATION_TYPE: concentration at 60 min (ng/mL)

[[record]]
molecule_smiles = "CC(C)(O)c1cccc(-c2ccc3nc(-c4ccc(Cl)cc4)cn3c2)c1"
quantitative_readout = 10100

